- measured_on: CREBBP (Homo sapiens (Human), UniProt Q92793)
- Sequence (Q92793 1081-1197): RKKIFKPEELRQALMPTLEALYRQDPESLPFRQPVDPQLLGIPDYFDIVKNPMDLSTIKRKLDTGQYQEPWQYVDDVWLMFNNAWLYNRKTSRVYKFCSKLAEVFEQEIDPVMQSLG
- method_summary: In vitro enzyme inhibition assay - CREBBP inhibition (AlphaScreen, biotinylated H4-tetraacetyl peptide)
- Type: binding
- conditions_used: Table 28; AlphaScreen, H4-tetraacetyl peptide
pIC50: −log10 of the molar value.
Attribute: pIC50

Sample answers from the record:
[[record]]
compound_smiles = "CCCn1cc(-c2cc(NS(=O)(=O)C(C)C)nc(Oc3ccc(F)cc3F)n2)cc(C)c1=O"
endpoint_label = "pIC50"
meas_value = "5.30 to 6.30"

[[record]]
compound_smiles = "CCS(=O)(=O)Nc1cc(-c2cc(C)c(=O)n(C)c2)nc(Oc2c(C)cc(Cl)cc2Cl)n1"
endpoint_label = "pIC50"
meas_value = "> 6.30"


Now examine the next entry.
Prompt line: Give the measured pIC50 of CCS(=O)(=O)Nc1cc(-c2cc(C)c(=O)n(C)c2)nc(OCC(F)(F)F)n1 .
Response line: > 6.30

// provenance: patent US10202360B2
